Attribution: patent US20060046981A1

Tested on: HEL cells
Experiment: Antiproliferation assay (7 days, Sulforhodamine B) in HEL fibroblasts
Format: cell-based, human
Details: Homo sapiens, HEL, 168 h; Table 79-2; 7 days; read-out: Antiproliferation EC50 HEL lung fibroblast
List of EC50 values.

Solved entries:
# compound, EC50
measured = [
    ("O=C1c2c(O)ccc(O)c2C(=O)c2c(NCCNCCO)ccc(NCCNCCO)c21 [Mitoxantrone]", "< 3.2 nM"),
    ("Nc1ccn([C@@H]2O[C@H](CO)[C@@H](O)[C@@H]2O)c(=O)n1 [AraC, cytarabine]", "29 nM"),
]

Turning now to a further record.
### Prompt Kindly state the measured EC50 obtained for COc1cc([C@@H]2c3cc4c(cc3[C@@H](O[C@@H]3O[C@@H]5CO[C@@H](C)O[C@H]5[C@H](O)[C@H]3O)[C@H]3COC(=O)[C@H]23)OCO4)cc(OC)c1O [Etoposide] with HEL cells.
### Response 144 nM
